assay_target: T1, monkey CDH6 protein (cynoCDH6 ECD-his) (monkey (cyno), UniProt A0A2K5TW62 19-615)
T1 construct: range 19-615; also called Cyno CDH6-his; not shown: his tag
T1 sequence: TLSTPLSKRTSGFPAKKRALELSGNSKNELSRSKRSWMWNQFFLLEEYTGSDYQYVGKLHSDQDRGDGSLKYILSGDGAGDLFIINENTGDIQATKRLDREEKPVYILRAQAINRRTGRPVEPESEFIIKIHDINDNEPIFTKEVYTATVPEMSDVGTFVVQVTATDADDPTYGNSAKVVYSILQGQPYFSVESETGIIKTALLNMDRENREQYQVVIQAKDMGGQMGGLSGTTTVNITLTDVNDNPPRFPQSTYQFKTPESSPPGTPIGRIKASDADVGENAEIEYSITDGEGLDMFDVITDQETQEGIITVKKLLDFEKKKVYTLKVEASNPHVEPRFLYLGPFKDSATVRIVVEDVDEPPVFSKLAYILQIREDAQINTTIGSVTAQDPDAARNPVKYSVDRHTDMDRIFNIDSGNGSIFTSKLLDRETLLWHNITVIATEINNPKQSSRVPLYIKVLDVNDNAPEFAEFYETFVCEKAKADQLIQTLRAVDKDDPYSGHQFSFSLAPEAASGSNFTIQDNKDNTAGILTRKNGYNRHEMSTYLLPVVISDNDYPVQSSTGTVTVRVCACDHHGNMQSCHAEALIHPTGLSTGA
experimental_protocol: ELISA, coated antigen
Max OD450: recorded values
observable: Max OD450 (OD450)

1) CHI-CDH6-9 (antibody, human IgG1, kappa, V domains shown, also called chimeric antibody of murine CDH6-9) VH: QVQLQQPGAELVKPGASVKLSCKASGYTFTGYWMHWVRQRPGQGLEWIGEINPNNGGTNCNEQFKNKATLTVDKSSSTAYMQLSSLTSEDSAVFYCTISFGNYLFFDVWGAGTTVTVSS VL: DIQMTQSPASLAASVGETITITCQASENIYFSLAWYQQKQGKSPQLLIYNANTLEDGVPSRFVGSGSGTQYSMKINSIQPEDTATYFCDQTYDFPWTFGGGTKLEIKR; 2.78
2) CHI-CDH6-8 (antibody, human IgG1, kappa, V domains shown, also called chimeric antibody of murine CDH6-8) VH: EVQLQQSGPELVKPGDSVKMSCKASGYTFTDYYMAWIKQNHGKSLEWIGYIYPNNGGTDYNQKFRGKATLTVDKSSSAAYMELHSLTSEDSAVYYCAREIGTLYGDYYAMDYWGQGTSVTVSS VL: DIQMTQSPASLSASVGETVTITCRASENIDSYLAWYQQKQGKSPQLLVYTATLLADGVPSRFSGSGSGTQYSLKINSLQSEDVARYYCQHYYSTPPTFGSGTKLEIKR; 2.12
3) CHI-CDH6-12 (antibody, human IgG1, kappa, V domains shown, also called CH1-CDH6-12; chimeric antibody of murine CDH6-12) VH: EVNLVESGGGLVQPGDSLTLSCSASGFTFTDYYMSWVRQFPGKALEWLALIRNKANSYTTEYSASVKGRFTISRDNSQSILYLQMNALRAEDSATYYCARDSYYSHDGFAYWGQGTLVTVSA VL: DIVLTQSPASLAVSLGQRATISCRASKSVSTSSYTYMHWYQQKPGQPPKLLIKFASYLESGVPARFSGSGSGTDFTLNIHPVEEEDAATYYCQHSREFPFTFGTGTKLEIKR; 2.45
